target under test: CDK8/Cyclin C (Homo sapiens)
Sequence (P49336 whole entry): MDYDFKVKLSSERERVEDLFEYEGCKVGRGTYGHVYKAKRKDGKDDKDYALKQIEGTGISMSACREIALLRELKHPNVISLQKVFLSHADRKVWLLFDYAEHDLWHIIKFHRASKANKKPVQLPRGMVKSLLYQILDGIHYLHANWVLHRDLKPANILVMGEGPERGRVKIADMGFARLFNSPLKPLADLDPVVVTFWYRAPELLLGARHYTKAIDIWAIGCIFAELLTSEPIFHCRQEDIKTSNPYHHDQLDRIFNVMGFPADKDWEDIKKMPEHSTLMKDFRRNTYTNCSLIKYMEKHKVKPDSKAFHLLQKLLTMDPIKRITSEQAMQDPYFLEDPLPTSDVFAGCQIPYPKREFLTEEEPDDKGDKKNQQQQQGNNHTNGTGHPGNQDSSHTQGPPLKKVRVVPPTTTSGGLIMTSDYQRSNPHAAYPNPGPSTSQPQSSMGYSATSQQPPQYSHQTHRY
Sequence (P24863 whole entry partner): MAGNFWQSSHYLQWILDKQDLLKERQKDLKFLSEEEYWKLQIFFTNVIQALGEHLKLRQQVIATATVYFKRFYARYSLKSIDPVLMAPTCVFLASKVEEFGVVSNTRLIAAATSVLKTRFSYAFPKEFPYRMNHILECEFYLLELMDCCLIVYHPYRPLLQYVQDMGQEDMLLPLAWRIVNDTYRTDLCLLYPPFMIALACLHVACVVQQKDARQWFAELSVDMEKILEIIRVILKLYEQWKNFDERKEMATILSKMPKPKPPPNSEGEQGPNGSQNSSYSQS
assay method text: CDK8/Cyclin C LANCE TR-FRET kinase assay
experimental setup: CDK8/Cyclin C 10 nM, ATP 24 μM, Ulight-GS peptide 80 nM, 37° C. 30 mins
pIC50: −log10 of the molar value.
quantity measured: pIC50

[[record]]
compound = "NC(=O)C(Nc1cncc(-c2cc(Cl)ccc2F)c1)c1ccccn1 (stereo not drawn) [Example 24]"
recorded_value = 5.68

[[record]]
compound = "NC(=O)C(Nc1cncc(-c2cc(Cl)ccc2F)c1)c1cccs1 (stereo not drawn) [Example 25]"
recorded_value = 7.07

[[record]]
compound = "NC(=O)C(Nc1cncc(-c2cncc(Cl)c2)c1)c1ccccc1 (stereo not drawn) [Example 10]"
recorded_value = 5.86

[[record]]
compound = "NC(=O)[C@@H](Nc1cncc(-c2ccc(O)c(Cl)c2)c1)c1ccccc1 [Example 4]"
recorded_value = 6.33

[[record]]
compound = "NC(=O)C(Nc1cncc(-c2cc(Cl)ccc2F)n1)c1ccccc1 (stereo not drawn) [Example 29]"
recorded_value = 6.91

[[record]]
compound = "NC(=O)[C@H](Nc1cncc(-c2cc(Cl)ccc2F)n1)c1ccccc1 [Example 30]"
recorded_value = 7.26

[[record]]
compound = "Cc1ccccc1C(Nc1cncc(-c2cc(Cl)ccc2F)c1)C(N)=O (stereo not drawn) [Example 11]"
recorded_value = 7.44

[[record]]
compound = "COc1cccc(C(Nc2cncc(-c3cc(Cl)ccc3F)c2)C(N)=O)c1 (stereo not drawn) [Example 21]"
recorded_value = 7.00

[[record]]
compound = "NC(=O)C(Nc1cncc(-c2ccc(F)c(Cl)c2)c1)c1ccccc1 (stereo not drawn) [Example 8]"
recorded_value = 5.63


Where do these numbers come from? They come from patent US9458106B2.
